Tested on: RXF 393
assay name: NCI tumour cell line growth inhibition, 48 h
Active and inactive are the calls of the source. Rule as the data show it: active = GI50 up to about 1.1 µM and inactive = higher.
Outcomes: active, inactive

- compound: "Cc1ccc2c(c1)/C(=N/Nc1ccccc1[N+](=O)[O-])C(=O)N2"
  assigned label: "inactive"
- compound: "C=CCCCCCC(O)C(O)C/C=C\\C/C=C\\CC (configuration not stated)"
  assigned label: "inactive"
- compound: "O=C(O)c1nn(-c2ccccc2)nc1-c1nn(-c2ccccc2)nc1C(=O)O"
  assigned label: "inactive"
- compound: "O=C(NCCCNC(=O)c1ccc2cc(O)c(O)cc2c1)c1ccc2cc(O)c(O)cc2c1"
  assigned label: "inactive"
- compound: "Cn1cc(C(=O)c2nccc3c2cnc2ccccc23)ccc1=O"
  assigned label: "active"
- compound: "C=C(C)CCOC(c1ccccc1)(c1ccccc1)c1ccccc1"
  assigned label: "inactive"
- compound: "COCOCC[C@@H]1CC=CC(NC(=O)OCc2ccccc2)C1/C=C/C(=O)CCC1OCCO1 (some centres not stated)"
  assigned label: "inactive"
- compound: "COc1cc(/C=C2\\CCC(C)C3=C2N=c2s/c(=C/c4ccc(Cl)cc4)c(=O)n2C3c2cc(OC)c(OC)c(OC)c2)cc(OC)c1OC (configuration not stated)"
  assigned label: "inactive"
- compound: "CS(=O)(=O)c1ccc(/N=C/C=C/Nc2ccc(S(C)(=O)=O)cc2)cc1"
  assigned label: "inactive"
- compound: "COC1CCC(OS(C)(=O)=O)CO1 (configuration not stated)"
  assigned label: "inactive"
- compound: "[O-][n+]1ccccc1S"
  assigned label: "active"
- compound: "CCC(=O)ONC(=O)Cn1ccc([N+](=O)[O-])n1"
  assigned label: "inactive"
- compound: "COC(=O)c1c(CC#N)cccc1CC#N"
  assigned label: "inactive"
- compound: "CCCCCCCCCCCCCC(=O)OCC1OC(n2cc(F)c(=O)[nH]c2=O)C(NC(=O)OCc2ccccc2)C(OC(=O)CCCCCCCCCCCCC)C1O (configuration not stated)"
  assigned label: "inactive"
- compound: "O=C1C(c2c(O)[nH]c3ccc([N+](=O)[O-])cc23)=Nc2ccccc21"
  assigned label: "inactive"
- compound: "Cn1c(=O)c2c(ncn2CCCCn2ccnc2[N+](=O)[O-])n(C)c1=O"
  assigned label: "inactive"
- compound: "COc1ccc(NC2Oc3cc4c(cc3C(c3cccc(OC)c3OC)C2C)OCO4)cc1 (configuration not stated)"
  assigned label: "inactive"
- compound: "O=S(=O)(c1ccc(Br)cc1)n1c2ccc(Br)cc2c2nc3ccccc3nc21"
  assigned label: "inactive"
- compound: "CCN(CC)C(=S)N/N=C(\\C)c1cccc(C)n1"
  assigned label: "active"
- compound: "COc1ccn(CC(=O)c2cc3ccccc3[nH]2)c(=O)n1"
  assigned label: "inactive"
- compound: "N=S(c1ccccc1[N+](=O)[O-])c1ccccc1[N+](=O)[O-]"
  assigned label: "inactive"
- compound: "COC(=O)/C(C#N)=C1\\CCC(O)N1C (configuration not stated)"
  assigned label: "inactive"

* * *

This listing pairs molecules with measured GI50.
Test system: A498
assay name: NCI tumour cell line growth inhibition, 48 h
Activity calls are given as the source filed them. Cut-off read from the data, not from the text of the source: active = GI50 up to about 1.1 µM and inactive = higher. Where a SMILES comes first, the peptide text is derived from it. [ ]: non-standard residue; d: D form. The star is where a group is joined. ξ: configuration not given here. ξF = NC(Cc1ccccc1)C(=O)O; Cbz = O=C(OCc1ccccc1)*; Aib = CC(C)(N)C(=O)O

- molecule: "[N-]=[N+]=NCc1cccc(Nc2cc(=O)[nH]c(=O)[nH]2)c1"
  system tested: "A498"
  GI50: "> 100 µM (inactive)"
- molecule: "CCCCc1ccc(-n2c3nc(=O)n(C)c(=O)c-3nc3ccccc32)cc1"
  system tested: "A498"
  GI50: "18.7 µM (inactive)"
- molecule: "COC(=O)C1=C2CCC(=O)[C@@]2(C)C(OC(C)=O)C=CC1 (some centres undefined)"
  system tested: "A498"
  GI50: "> 100 µM (inactive)"
- molecule: "COC(=O)C(C)(C)NC(=O)C(Cc1ccccc1)NC(=O)C(C)(C)NC(=O)OCc1ccccc1 (centres undefined) (Cbz-[Aib]-[ξF]-[Aib]-OMe)"
  system tested: "A498"
  GI50: "24.3 µM (inactive)"
- molecule: "O=C1NC(=O)/C(=C/c2ccc(S(=O)(=O)N/N=C/c3ccccc3)cc2)N1"
  system tested: "A498"
  GI50: "2.75 µM (inactive)"
- molecule: "OCCN1CCN2C=C(C3CCCC4N(CCO)CCN34)CCC21 (centres undefined)"
  system tested: "A498"
  GI50: "> 100 µM (inactive)"
- molecule: "COC(=O)c1c[nH]c2c1-c1cc(C(=O)OCc3ccccc3)n(S(=O)(=O)c3ccc(C)cc3)c1C(=O)C2=O"
  system tested: "A498"
  GI50: "1.85 µM (inactive)"
- molecule: "CCCCCCCCCCCCC(O)C1CCC(C(O)CCCCC(O)CCCCCC2CC(CC(C)=O)C(=O)O2)O1 (centres undefined)"
  system tested: "A498"
  GI50: "4.52 µM (inactive)"
- molecule: "Nc1ccc(C(=O)O)c2[nH]c3ccccc3c(=O)c12"
  system tested: "A498"
  GI50: "> 100 µM (inactive)"

* * *

Test system: SF-295
assay name: NCI tumour cell line growth inhibition, 48 h
Activity calls are given as the source filed them. Cut-off read from the data, not from the text of the source: active = GI50 up to about 1.1 µM and inactive = higher.

- compound: "CCOC(=O)C1(C(=O)OCC)[C@H](c2ccccc2)C2=NO[C@@H]3CCC[C@H]1[C@H]23"
  GI50: "33.4 µM (inactive)"
- compound: "CC1=C(C(=O)Nc2c(C)cccc2C)C(c2ccc3c(c2)OCO3)C(C(=O)Nc2c(C)cccc2C)=C(C)N1"
  GI50: "16.5 µM (inactive)"
- compound: "Cc1ccc(N/C(SCc2ccccc2)=C(\\C(Cl)=C(Cl)Cl)[N+](=O)[O-])c(C)c1"
  GI50: "23.7 µM (inactive)"
- compound: "CC(C)=CCC/C(C)=C/CC/C(C)=C/CC/C(=C/CC/C(C)=C\\CC/C(C)=C/CC/C(C)=C/CC/C(C)=C/Cc1cc(O)ccc1O)CO"
  GI50: "1.84 µM (inactive)"
- compound: "O=c1c(O)c(-c2ccc(O)cc2O)oc2cc(O)cc(O)c12"
  GI50: "> 100 µM (inactive)"
- compound: "Nc1ccc(C(=O)O)c2[nH]c3ccccc3c(=O)c12"
  GI50: "> 100 µM (inactive)"
- compound: "CCCOC(=O)CCC(NC(=O)c1ccc(Nc2nc3ccccc3nc2-c2cccs2)cc1)C(=O)OCCC (centres undefined)"
  GI50: "> 100 µM (inactive)"
- compound: "CCC1=CCN(c2cc(C)ccn2)OC1c1ccc(OC)cc1 (centres undefined)"
  GI50: "22.2 µM (inactive)"
- compound: "CN(C)CCCCN1c2ccccc2Sc2ccc(N=[N+]=[N-])cc21"
  GI50: "5.66 µM (inactive)"

* * *

Test system: UACC-62
assay name: NCI tumour cell line growth inhibition, 48 h
Calls of active or inactive are those of the source. Cut-off read from the data, not from the text of the source: active = GI50 up to about 1.1 µM and inactive = higher.
This listing pairs molecules with measured GI50.
observation type: GI50

- molecule: "O=C1C(c2c(O)[nH]c3ccc([N+](=O)[O-])cc23)=Nc2ccccc21"
  observation type: "GI50"
  measured: "> 100 µM (inactive)"
- molecule: "CC1CC2C(=O)N(c3ccccc3)C(=O)C2c2[nH]c3ccccc3c21 (stereo unspecified)"
  observation type: "GI50"
  measured: "> 100 µM (inactive)"
- molecule: "CC(C)=CCC/C(C)=C/CC/C(C)=C/CC/C(=C/CC/C(C)=C\\CC/C(C)=C/CC/C(C)=C/CC/C(C)=C/Cc1cc(O)ccc1O)CO"
  observation type: "GI50"
  measured: "1.18 µM (inactive)"
- molecule: "CC(=S)N/C=C1/C(=O)C=C(C)OC1=O"
  observation type: "GI50"
  measured: "> 100 µM (inactive)"
- molecule: "C[N+]1([O-])CCC(O)(C2CC2)CC1 (stereo unspecified)"
  observation type: "GI50"
  measured: "> 100 µM (inactive)"
- molecule: "O=C1NC(=O)C(CCC(=O)c2cccc3ccccc23)C(=O)N1"
  observation type: "GI50"
  measured: "> 100 µM (inactive)"
- molecule: "CCCOC(=O)CCC(NC(=O)c1ccc(Nc2nc3ccccc3nc2-c2cccs2)cc1)C(=O)OCCC (stereo unspecified)"
  observation type: "GI50"
  measured: "41.7 µM (inactive)"
- molecule: "CCOC(=O)C1(C/C=C/CBr)Cc2ccccc2C1=O (stereo unspecified)"
  observation type: "GI50"
  measured: "2.14 µM (inactive)"
- molecule: "CCC/C(Cl)=N/OC(=O)Nc1cccc(F)c1"
  observation type: "GI50"
  measured: "14.4 µM (inactive)"
- molecule: "COC(=O)c1c(CC#N)cccc1CC#N"
  observation type: "GI50"
  measured: "> 100 µM (inactive)"
- molecule: "Cc1ccc(N2C(=O)/C(=C3\\Sc4c(nc(C)[nH]c4=O)N3c3ccccc3)SC2=S)cc1"
  observation type: "GI50"
  measured: "> 100 µM (inactive)"
